Reference source: PubChem BioAssay

Exercise: for every item that follows, state its recorded inhibition.
Tested on: Botulinum neurotoxin type F light chain protease (Clostridium botulinum)
Experiment: Botulinum neurotoxin type F light chain protease inhibition, multiplex microsphere flow cytometry, validation set (AID 588459)
Conditions: multiplex microsphere protease substrate cleavage assay, at 10 µM, stronger effect = higher value
The reply should be a number in %, with the unit left off.

Task item: Recorded inhibition for CCOC(=O)C(=O)Nc1ccc(Oc2ccccc2)cc1 , please?
Reply: 1.4

Task item: What measured inhibition goes with CC(C)COCC1CC2(CC(C)(c3csc(N)n3)OC2=O)C(=O)O1 (stereo unspecified) ?
Reply: -3.2

Task item: Please report the recorded inhibition for Cc1ccc2ncnc(NCCCCCC(=O)O)c2c1 .
Reply: 1.7

Task item: For COc1cc(OC)cc(C(C)=O)c1 , what is its reported inhibition?
Reply: -1.9

Task item: Entry under review: CN1CCN(C(=O)OC2c3nccnc3C(=O)N2c2ccc(Cl)cn2)CC1 (stereo unspecified) . Reported inhibition?
Reply: 4.3

Task item: Any idea what inhibition was measured for COc1ccc(C(=O)NC(=O)NC2(C(Cl)(Cl)Cl)OCCO2)cc1 ?
Reply: 0.9

Task item: Give its inhibition value. Item: Cc1ccc2nc(NC3=NC(CC(=O)O)C(=O)N3)nc(C)c2c1 (stereo unspecified)
Reply: -1.7

Task item: So what's the measured inhibition for this one? Cc1nonc1CN(C)C(=O)c1ccc(OC2CCN(Cc3ccccn3)CC2)cc1
Reply: 0

Task item: I am curious: what inhibition value has been reported for Cc1csc(-c2coc3cc(O)cc(C)c3c2=O)n1 ?
Reply: 0.3

Task item: Tell me the measured inhibition of Cc1ccc(/C=N/Nc2nc(C(C)(C)C)cs2)o1 , please.
Reply: -1

Task item: Fill in the blank: the reported inhibition of O=C(N/C(=C/C=C\c1ccccc1)C(=O)N1CCOCC1)c1ccc(Br)cc1 is ____.
Reply: 3.8

Task item: Form field: reported inhibition of Cn1c(O)c(C=NCCc2c[nH]c3ccccc23)c(=O)n(C)c1=O
Reply: -1.3

Task item: For the compound Cc1ccc2[nH]c3c(=O)n(CCCN4CCN(C)CC4)cnc3c2c1 , what inhibition is on record?
Reply: 7.8

Task item: Which inhibition value belongs to CS(=O)(=O)Nc1ccc([N+](=O)[O-])cc1Oc1ccccc1 ?
Reply: 0

Task item: What does the data say about its inhibition? Entry: C[C@]12CCC3C(CC=C4C[C@@H](O)CC[C@@]43C)C1CCC2[C@]1(C)CCC(=O)O1 (stereo partly specified)
Reply: 0.6

Task item: So what's the measured inhibition for this one? COc1ccc(C2OC[C@H]3O[C@H](O)[C@H](NC(C)=O)[C@@H](O)[C@@H]3O2)cc1 (stereo partly specified)
Reply: -3.6

Task item: Give its inhibition value. Item: COc1cc(-c2cccs2)cc(=O)c2c(C)oc(C)c12
Reply: 1.4

Task item: Data request, read-out inhibition, for CC(C)C(=O)Nc1c(O)c2ccccc2[nH]c1=O
Reply: 3.5

Task item: Which inhibition is listed for NS(=O)(=O)c1cc2c(cc1Cl)NC(C1C[C@H]3C=C[C@@H]1C3)NS2(=O)=O (stereo partly specified) ?
Reply: 1.4

Task item: Suppose we examine the compound CC/C(=C1/C(=O)CC(C)(C)C(C(=O)OC)C1=O)N1CCCC1 (stereo unspecified) ; what inhibition value has been reported?
Reply: -4.4

Task item: Item under review: Cc1cccc(N2CCN(C(=S)c3ccccc3)CC2)c1 . Reported inhibition?
Reply: 3.3

Task item: Fill in: inhibition of CNS(=O)(=O)c1ccc(C)cc1 is ___
Reply: -3.1

Task item: Value lookup for inhibition; key = c1ccc(CC2=NCCN2)cc1
Reply: 1.9

Task item: Consider the compound CC(C)(C)C(O)C(Oc1ccc(Cl)cc1)n1cncn1 (stereo unspecified) and give its measured inhibition.
Reply: -0.4

Task item: Name the reported inhibition value associated with the compound Cn1c(Oc2ccc3c(c2)OCO3)nc2c1c(=O)n(Cc1ccccc1)c(=O)n2C
Reply: 1.4

Task item: Query (compound): COc1cc2cc(C)nc(Cc3cccc4ccccc34)c2cc1OC ; field requested: inhibition
Reply: 5.3

Task item: I'd like to know its inhibition. The compound in question is N/C(=N\OC(=O)CCCOc1ccc(Cl)cc1Cl)c1ccccn1
Reply: 4

Task item: Tell me the measured inhibition of CCOC(=O)c1cc2c(nc1N)CC(C)(CC)OC2 (stereo unspecified) , please.
Reply: 3.5

Task item: Look up inhibition for this compound: COc1ccccc1C(=O)Oc1ccc2c(c1)O/C(=C\c1ccncc1)C2=O
Reply: -0.7

Task item: Which value of inhibition has been reported for Cn1c(=O)[nH]c(=O)c2c1ncn2CCN1CCOCC1 in the records?
Reply: 3.5

Task item: What measured inhibition goes with COc1ccc(C2(CCN=Cc3ccc(N(C)C)cc3)CCOC(C)(C)C2)cc1 (stereo unspecified) ?
Reply: 9.1

Task item: // lookup inhibition for CC1(C)Oc2ccc(C#N)cc2[C@@H](N2CCCC2=O)[C@@H]1O
Reply: 3

Task item: So what does the record say about inhibition for O=C(Nc1ccccc1)OCC1CCCN2CCCCC12 (stereo unspecified) ?
Reply: 0.6

Task item: Returns the measured inhibition for the input compound. Input: CCOCC(=O)Nc1ccccc1C(=O)N1CCOCC1
Reply: 32.5

Task item: Reported inhibition for Cc1onc(-c2c(Cl)cccc2Cl)c1C(=O)NC1C(=O)N2C1SC(C)(C)C2C(=O)O (stereo unspecified) : what is it?
Reply: 1.2

Task item: GET /values?readout=inhibition&item= COc1ccc2c(c1)CC1(CN2C)C(=O)NC(=O)N(CCc2ccccc2)C1=O (stereo unspecified)
Reply: 3.8

Task item: Any idea what its inhibition is? The compound is O=C(COc1ccc(F)cc1)OCCN1CCOCC1
Reply: 1.8

Task item: Would you mind telling me what inhibition value was observed for O=C(O)c1ccccc1C(=O)OCCCCOC(=O)c1ccccc1C(=O)O ?
Reply: 5.9

Task item: Given COc1ccc(-c2cc3cc(OC)c(OC)cc3c(C)n2)cc1 , state its recorded inhibition.
Reply: -3.3

Task item: Which inhibition reading was recorded for the compound Cn1cc(C2N3CC4(C)CN2CC(C)(C3)C4=O)c2ccccc21 (stereo unspecified) ?
Reply: 1

Task item: # get_value(readout='inhibition', item= CCCC[N+]1(C)[C@@H]2CC(OC(=O)[C@H](CO)c3ccccc3)C[C@H]1[C@@H]1O[C@@H]12 (stereo partly specified) )
Reply: 1.1

Task item: Requested field: inhibition. Item: O=C1CCCCCN1Cc1ccccc1
Reply: -3.6

Task item: Return reported inhibition; argument: Cc1ccccc1N1C(N)=NC(N)=NC1(C)C
Reply: -1.5

Task item: I'd like to know its inhibition. The compound in question is CN1C(=O)C(O)(CC(=O)/C=C/C=C/c2ccccc2)c2ccccc21 (stereo unspecified)
Reply: -1.9

Task item: Record request: inhibition value, item CC(C)=CC/C=C1\CCC(C(=O)O)C(C(=O)O)C1 (stereo unspecified)
Reply: -1.1

Task item: Quick one: inhibition of CCOC(=O)C1C(=O)OC2(CCOC(C)(C)C2)C1C(=O)OCC (stereo unspecified) ?
Reply: -2.7
